Recorded AUC(0-t) values for a group of compounds are listed next.
assay: Plasma pharmacokinetics of RPM constituents after oral RPM extract; conditions: Sprague-Dawley, rat, plasma, po, 18 g/kg
Express the result in µM·h but write the number alone.

Solved entries:
>>> readout_value("COc1cc(O)cc2c1C(=O)c1c(O)cc(CO)cc1C2=O")
0.0401
>>> readout_value("COc1cc(O[C@@H]2O[C@H](CO)[C@@H](O)[C@H](O)[C@H]2O)c2c(c1)C(=O)c1cc(C)cc(O)c1C2=O [PG, physcion-8-O-β-D-glucoside]")
0.176
>>> readout_value("O=C1c2cccc(O)c2C(=O)c2c(O)cc(CO)cc21")
0.0254
>>> readout_value("OC[C@H]1O[C@@H](Oc2c(O)cc(O)cc2/C=C/c2ccc(O)cc2)[C@H](O)[C@@H](O)[C@@H]1O")
4.04
>>> readout_value("O=C(O)c1cc(O)c2c(c1)C(=O)c1cccc(O)c1C2=O")
0.00426

query: Name the recorded AUC(0-t) of the compound listed here: Cc1cc(O)c2c(c1)C(=O)c1cc(O)cc(O)c1C2=O
result: 2.48

query: Name the recorded AUC(0-t) of the compound listed here: COc1cc(O[C@@H]2O[C@H](CO)[C@@H](O)[C@H](O)[C@H]2O)c2c(O)c(C(C)=O)c(C)cc2c1 [TG, torachrysone-8-O-glucoside]
result: 0.048

query: Name the recorded AUC(0-t) of the compound listed here: Cc1cc(O)c2c(c1)C(=O)c1cccc(O)c1C2=O
result: 0.0198
